Data origin: PubChem BioAssay (NCI)

Tested on: HL-60(TB) leukemia
procedure_details: NCI tumour cell line growth inhibition, 48 h
attribute_measured: GI50

compound="CC(C)CCCCCCCCCCCCC(=O)NCC(=O)NC1C(C)OC(Nc2ncnc3nc[nH]c23)C(O)C1O (stereo not drawn)" attribute_measured=GI50 value_measured="0.001 µM"
compound=CC[C@]12C=CCN3CC[C@@]4(c5ccc(OC)cc5N(C)[C@H]4[C@@](O)(C(=O)OC)[C@@H]1OC(=O)CCC(=O)O[C@H]1CC[C@H]4[C@@H]5CC[C@H]6CC(=O)CC[C@]6(C)[C@H]5CC[C@]14C)[C@@H]32 attribute_measured=GI50 value_measured="2.12 µM"
compound=COc1cc2c3c(n(CCCn4cncn4)c(=O)c2cc1OC)-c1cc2c(cc1C3=O)OCO2 attribute_measured=GI50 value_measured="< 0.0131 µM"
compound=CCN(CC)CCn1c(=O)c2cc(OC)c(OC)cc2c2ccc3cc4c(cc3c21)OCO4 attribute_measured=GI50 value_measured="0.721 µM"
compound=C/C(CC(C)(C)N1CC1)=N\NC(=O)Nc1cccc2ccccc12 attribute_measured=GI50 value_measured="2.04 µM"

# map each compound to its GI50
1. COc1cc2c(cc1O)c(=O)n(CCN(C)C)c1c3cc4c(cc3ncc21)OCO4
2. COc1cc2c(/C=C3/C(=O)Nc4ccc(O)cc43)c(Cl)n(Cc3cc(OC)c(OC)c(OC)c3)c2cc1C
3. CC1(C)CCc2c(c(N=Nc3ccccc3F)c3ccccc3c2O)O1

Response:
1. < 0.01 µM
2. 1.97 µM
3. > 100 µM

----------
Please respond with reported TGI for every item in the list.
Tested on: LOX IMVI melanoma
procedure_details: NCI tumour cell line growth inhibition, 48 h

Solved cases below.
compound=COc1cccc(C=O)c1[O-].COc1cccc(C=O)c1[O-].[Zn+2] test_system="LOX IMVI melanoma" value_measured="> 100 µM"
compound=COc1cc(NC(C)=O)ccc1C(=O)N/N=C/c1ccco1 test_system="LOX IMVI melanoma" value_measured="> 100 µM"

# map each compound to its TGI
1. CN[C@@H](Cc1cccc2ccccc12)C(=O)N[C@@H](CC(C)C)B(O)O
2. O=C(Nc1cccc(C(F)(F)F)c1)c1ccc(NC2=C(Cl)C(=O)N(Cc3ccccc3)C2=O)cc1
3. CCN(CCO)CCCC(C)Nc1ccnc2cc(Cl)ccc12 (stereo unspecified)
4. CN1N=C2c3ccccc3OC(c3ccccc3)[C@H]2C1c1ccccc1 (stereo partly specified)

Response:
1: 0.0324 µM; 2: 6.6 µM; 3: > 100 µM; 4: > 100 µM

----------
Tested on: NCI-H226 lung
procedure_details: NCI tumour cell line growth inhibition, 48 h
attribute_measured: TGI (µM)
Give bare numbers, in µM.

molecule=CC1=C2[C@@H](CC1)[C@]1(C)O[C@@](C(C)C)(C[C@H]1OC(=O)CO)[C@H]2OC(=O)CCCc1ccccc1 value_measured=22.9

# map each molecule to its TGI
1. C/C(=C\C(C[C@](C)(O)C(O)CCC#C[Si](C)(C)C)S(=O)(=O)c1ccccc1)CC/C=C/CO[Si](C)(C)C(C)(C)C (stereo not given in full)
2. CC1=C(SCCO)C(=O)c2ccccc2C1=O
3. O=c1oc2ccc(Cl)cc2c(=O)n1-c1ccc(F)cc1F

Response:
38.8
29.1
5.87

----------
Tested on: SF-268 CNS
procedure_details: NCI tumour cell line growth inhibition, 48 h; in the data active means GI50 below about 0.43 µM; inactive means the rest
Outcomes you can answer with include only these: Yes for active, No for inactive

Look over these answered cases.
compound="CCN(CCO)CCCC(C)Nc1ccnc2cc(Cl)ccc12 (stereo not given)" class_assignment=No
compound=CCOC(=O)c1c2c(n3ccc(NC(=O)CCN4CCCCC4)cc13)C(=O)c1ncccc1C2=O class_assignment=Yes

Prompt: Hey, what did the test say about `CCCCc1n(Cc2ccc3ccccc3n2)cc[n+]1Cc1ccc2ccccc2n1` ?
Response: No

Prompt: Hey, what did the test say about `CC(C)=Cc1cccc2[nH]c(O)c(N=Nc3ccc(S(N)(=O)=O)cc3)c12` ?
Response: No

Prompt: Hey, what did the test say about `CC(=O)Nc1ccc(OC(C)=O)cc1` ?
Response: Yes

Prompt: Hey, what did the test say about `CCCS(=O)(=O)Nc1cccc(Nc2ncnc3cc(NC(=O)CCl)ccc23)c1Cl` ?
Response: No

Prompt: Hey, what did the test say about `Fc1ccc(-c2ncn(CCCN3CCOCC3)c2-c2ccncc2)cc1` ?
Response: No

Prompt: Hey, what did the test say about CC(C)CCCCCCCCCCCCC(=O)NCC(=O)NC1C(C)OC(Nc2ncnc3nc[nH]c23)C(O)C1O (stereo not given) ?
Response: Yes

Prompt: Hey, what did the test say about `O=C(CCCC(=O)N/N=C/c1cc(Cl)ccc1O)N/N=C\c1cc(Cl)ccc1O` ?
Response: No

Prompt: Hey, what did the test say about `CC[C@H]1CCC/C=C/[C@@H]2C[C@H](O)C[C@H]2[C@H](O)/C=C/C(=O)O1` ?
Response: Yes

Prompt: Hey, what did the test say about `CCC[CH2][Sn]1([CH2]CCC)[O]CC[S]1` ?
Response: Yes

Prompt: Hey, what did the test say about FC(F)(F)c1cc(NC(=S)N2c3ccccc3-n3cccc3C2c2cccnc2)cc(C(F)(F)F)c1 (stereo not given) ?
Response: No

Prompt: Hey, what did the test say about COc1ccc(C2=NN(C(C)=O)C(c3ccc(Oc4ccnc5cc(Cl)ccc45)c(OC)c3)C2)cc1 (stereo not given) ?
Response: No

Prompt: Hey, what did the test say about `O=C(Nc1cccc(C(F)(F)F)c1)c1ccc(NC2=C(Cl)C(=O)N(Cc3ccccc3)C2=O)cc1` ?
Response: No

Prompt: Hey, what did the test say about `C/C(CC(C)(C)N1CC1)=N\NC(=O)Nc1cccc2ccccc12` ?
Response: No

----------
System: SR leukemia
Outcomes you can answer with include only these: y (active), n (inactive)

compound=CN[C@@H](Cc1cccc2ccccc12)C(=O)N[C@@H](CC(C)C)B(O)O class_assignment=y

Now examine the next entry.
Prompt: Hey, what did the test say about `O=[N+]([O-])c1ccc(N=Nc2c(Cl)cc(O)cc2Cl)cc1` ?
Response: y

----------
Please respond with reported TGI for every item in the list.
System: RXF 393 renal
procedure_details: NCI tumour cell line growth inhibition, 48 h
One number for each entry, in µM.

compound=CCC[CH2][Sn]1([CH2]CCC)[O]CC[S]1 uom=µM value_measured=0.332
compound="COc1ccc(C2=NN(C(C)=O)C(c3ccc(Oc4ccnc5cc(Cl)ccc45)c(OC)c3)C2)cc1 (stereo not given)" uom=µM value_measured=41
compound="Cc1ccc2[nH]c(C(=O)NN3C(=O)C(C)SC34CCC(C)CC4)c(-c3ccccc3)c2c1 (stereo not given)" uom=µM value_measured=30.1
compound=Cc1nc(-n2nc(-c3ccccc3)cc2-c2ccccc2)sc1C(=O)/C=C/c1ccc([N+](=O)[O-])cc1 uom=µM value_measured=49.3
compound=CCCCc1n(Cc2ccc3ccccc3n2)cc[n+]1Cc1ccc2ccccc2n1 uom=µM value_measured=16.5

# map each compound to its TGI
1. O=C1/C(=C/c2ccc(F)cc2)CN(C(=O)C(Cl)Cl)C/C1=C\c1ccc(F)cc1
2. O=C1NC(=NCc2ccc(F)cc2)N/C1=C\c1ccccc1Cl

Response:
1: 0.968; 2: 48.2

----------
System: SNB-19 CNS
procedure_details: NCI tumour cell line growth inhibition, 48 h
Please respond with reported TGI for every item in the list.

Solved cases below.
molecule=COc1ccc(/C=C2/SC(=Nc3ccccc3)N(NC(=O)Cc3ccccc3)C2=O)c(OC)c1 value_measured="> 100 µM"
molecule=COc1ccc([Se][Se]c2ccc(OC)cc2OC)c(OC)c1 value_measured="21 µM"
molecule=Cc1ccc2nc(CN(CCO)CCO)cc(=O)n2c1 value_measured="> 100 µM"

# map each molecule to its TGI
1. CCOC(=O)C(NC(=O)c1ccccc1)(c1ccc(S(=O)(=O)Nc2onc(C)c2C)cc1)C(F)(F)F (stereo unspecified)
2. C/C(=C\C(C[C@](C)(O)C(O)CCC#C[Si](C)(C)C)S(=O)(=O)c1ccccc1)CC/C=C/CO[Si](C)(C)C(C)(C)C (stereo partly specified)
3. C=CCc1cccc2cc(C(=O)Nc3ccc(C)cc3)c(=N)oc12
4. O=c1[nH]nc(CNc2ccc(Cl)cc2Cl)c2ccccc12
5. CC12C3CC4C5CC(C(C53)[C@@H]1NCc1ccccc1)C42 (stereo partly specified)
6. CC1=C2[C@@H](CC1)[C@]1(C)O[C@@](C(C)C)(C[C@H]1OC(=O)CO)[C@H]2OC(=O)CCCc1ccccc1
7. N#Cc1ccccc1NC(=O)C(=O)C(C(=O)c1ccncc1)C1OC(=O)c2ccccc21 (stereo unspecified)
8. Cn1ccc(=NS(=O)(=O)c2ccccc2)cc1

Response:
1: > 100 µM; 2: 41.6 µM; 3: > 100 µM; 4: 60.7 µM; 5: > 100 µM; 6: 24.9 µM; 7: > 100 µM; 8: > 100 µM
